Notes on pIC50 obtained with EGFR (UniProt P00533).
Sequence (P00533 whole entry, looked up): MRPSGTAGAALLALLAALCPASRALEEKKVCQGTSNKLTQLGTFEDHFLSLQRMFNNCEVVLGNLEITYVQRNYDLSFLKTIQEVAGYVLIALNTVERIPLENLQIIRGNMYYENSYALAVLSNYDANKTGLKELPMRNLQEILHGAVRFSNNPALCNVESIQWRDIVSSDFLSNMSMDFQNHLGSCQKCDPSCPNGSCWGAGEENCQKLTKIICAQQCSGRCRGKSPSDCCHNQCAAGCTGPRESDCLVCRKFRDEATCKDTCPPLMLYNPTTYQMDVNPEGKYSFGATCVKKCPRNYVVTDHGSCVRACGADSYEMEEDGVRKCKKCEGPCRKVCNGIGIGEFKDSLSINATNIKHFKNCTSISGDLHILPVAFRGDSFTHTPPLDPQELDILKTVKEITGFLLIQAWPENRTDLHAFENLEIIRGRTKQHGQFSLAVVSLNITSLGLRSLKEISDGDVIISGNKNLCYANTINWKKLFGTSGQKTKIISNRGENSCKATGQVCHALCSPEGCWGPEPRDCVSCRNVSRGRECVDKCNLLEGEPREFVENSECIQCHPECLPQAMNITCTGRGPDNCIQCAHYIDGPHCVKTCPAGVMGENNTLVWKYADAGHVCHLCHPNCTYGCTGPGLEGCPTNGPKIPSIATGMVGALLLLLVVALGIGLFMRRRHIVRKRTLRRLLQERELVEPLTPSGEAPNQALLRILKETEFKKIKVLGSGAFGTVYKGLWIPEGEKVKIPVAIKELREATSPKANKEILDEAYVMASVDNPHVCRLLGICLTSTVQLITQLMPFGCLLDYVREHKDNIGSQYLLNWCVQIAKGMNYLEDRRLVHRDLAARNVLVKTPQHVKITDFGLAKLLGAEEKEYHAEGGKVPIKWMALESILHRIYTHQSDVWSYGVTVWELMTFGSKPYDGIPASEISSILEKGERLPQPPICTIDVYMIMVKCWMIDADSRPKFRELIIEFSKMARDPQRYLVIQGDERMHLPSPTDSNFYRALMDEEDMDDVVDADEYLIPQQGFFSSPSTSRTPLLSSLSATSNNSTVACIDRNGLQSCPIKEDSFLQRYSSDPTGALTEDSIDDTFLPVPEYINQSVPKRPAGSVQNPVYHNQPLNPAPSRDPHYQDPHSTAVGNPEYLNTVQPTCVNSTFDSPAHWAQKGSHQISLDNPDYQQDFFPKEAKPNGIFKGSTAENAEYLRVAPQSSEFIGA
Reminder that pIC50 is minus the log10 of a molar concentration.

Recorded results for 4 compounds are shown here.
COc1cc2ncnc(Nc3ccccc3Cl)c2cc1OC    7.30
COc1cc2ncnc(Nc3cccc(C#N)c3)c2cc1OC    5.00
COc1cc2ncnc(N(C)c3ccccc3)c2cc1OC    6.70
COc1cccc(Sc2ncnc3cc(OC)c(OC)cc23)c1    5.70

Consider the additional compound presented here.
In: Request body: readout pIC50, system EGFR (UniProt P00533), query COc1cccc(Nc2ncnc3cc(OC)c(OC)cc23)c1 . Return the value.
Out: 7.30
